System: RXF 393 renal
procedure_details: NCI-60 one-dose screen, 48 h
reported_conditions: 10 µM unless noted
The panel holds about 83,000 compounds, 20% with a hit somewhere; the sample as a whole holds those more often. Active and inactive are the calls of the source. How the source made its calls: active means growth percent below 10; inactive means the rest.
Select the correct class. Options are active, inactive and nothing else.

INPUT: What did the test return for CO[C@@H](C)Cn1c(=O)n(C)c2cnc3ccc(-c4cncc(C(C)(C)O)c4)cc3c21 ?
OUTPUT: active

INPUT: CC(=O)OC(C(=O)c1ccccc1)c1ccccc1 (configuration not stated) , same question.
OUTPUT: inactive

INPUT: Can you check O=C(CNc1nnc(-c2ccc(Cl)cc2)o1)Nc1ccc(-c2nc3ccccc3s2)cc1 next?
OUTPUT: inactive

INPUT: Follow-up entry: Cc1ccc(NC(=O)c2ccc(CN3CC[C@H](N(C)C)C3)c(C(F)(F)F)c2)cc1Nc1nccc(-c2cncnc2)n1
OUTPUT: active

INPUT: Moving on to Cc1ccc(-n2nc(C(C)(C)C)cc2NC(=O)NCc2cc(F)ccc2Oc2ccc3c(cnn3CCO)c2)cc1
OUTPUT: active

INPUT: Param item: COc1ccc(Br)cc1NC(=O)Nc1cccc2c1ccn2Cc1ccnc(N)c1
OUTPUT: inactive

INPUT: What do we get for COc1ccc(-c2cnc(-c3ccc(Cl)cc3)[nH]2)cc1OC ?
OUTPUT: inactive

INPUT: Next molecule: O=C(NOC[C@H](O)CO)c1ccc(F)c(F)c1Nc1ccc(I)cc1F
OUTPUT: active

INPUT: One more molecule: COc1cc(CCc2cc(NC(=O)c3ccc(N4C[C@@H](C)N[C@@H](C)C4)cc3)n[nH]2)cc(OC)c1
OUTPUT: active

INPUT: # iterate: Cn1cc(-c2cnn3c(N)c(Br)c([C@@H]4CCCNC4)nc23)cn1
OUTPUT: active

INPUT: Now consider O=C(Nc1cnn2ccc(N3CCC[C@@H]3c3cc(F)ccc3F)nc12)N1CC[C@H](O)C1 .
OUTPUT: inactive

INPUT: And the next one, C=C1CC[C@@H]2[C@](C)(COC(C)=O)[C@H](OC(C)=O)CC[C@@]2(C)[C@@H]1C/C=C1/C(=O)OC[C@H]1OC(C)=O ?
OUTPUT: active

INPUT: Next molecule up: Cc1cc2c(-c3nc4ccccn4c3NC34CC5CC(CC(C5)C3)C4)c(O)c(O)cc2c(O)c1-c1c(C)cc2c(-c3nc4ccccn4c3NC34CC5CC(CC(C5)C3)C4)c(O)c(O)cc2c1O
OUTPUT: inactive

INPUT: Same lookup for COc1ccc2c(c1)cn1c3ccc(O)cc3nc(N)c21 , please.
OUTPUT: active

INPUT: // repeat for COc1ccc(/C(C)=C(\c2ccc(Cl)cc2)c2ccc(OCCN3CCCCCC3)cc2)cc1 and report
OUTPUT: inactive

INPUT: And then CN1CCN(c2ccc(C(=O)Nc3n[nH]c4ccc(Cc5cc(F)cc(F)c5)cc34)c(NC3CCOCC3)c2)CC1 , what is it?
OUTPUT: active

INPUT: Then COc1cc(-c2cc(-c3ccc(Nc4ccnc5cc(Cl)ccc45)cc3)nc(N3CCOCC3)n2)cc(OC)c1OC ?
OUTPUT: active

INPUT: Subsequent entry: Cn1cnc2c(F)c(Nc3ccc(Br)cc3Cl)c(C(=O)NOCCO)cc21
OUTPUT: inactive

INPUT: Next entry: CC(C)(C)c1cnc(CSc2cnc(NC(=O)C3CCNCC3)s2)o1
OUTPUT: active

INPUT: Repeat for the following molecule: CN1CCN(CC(=O)Nc2ccc(-c3nc4ccccc4s3)cc2)CC1
OUTPUT: inactive

INPUT: Another molecule to check: Cc1cc(Oc2ccccc2)ccc1Nc1ncnc2ccc(-c3cnc(Cl)c(NS(C)(=O)=O)c3)cc12
OUTPUT: active

INPUT: Another molecule: COc1cc2ncnc(Nc3cccc(Cl)c3F)c2cc1OC(=O)N1CCN(C)C[C@H]1C
OUTPUT: inactive

INPUT: Repeat for the following molecule: Cc1csc(-c2nnc(Nc3ccc(Oc4ncccc4-c4ccnc(N)n4)cc3)c3ccccc23)c1
OUTPUT: active

INPUT: Also OCCNC(=S)Nc1ccc(-c2nc(N3C[C@H]4CC[C@@H](C3)O4)c3cccn3n2)cc1 , if possible.
OUTPUT: active

INPUT: Same question, COc1cc(NCCCN)c2ncccc2c1 this time
OUTPUT: inactive

INPUT: Follow-up entry: CS(=O)(=O)CCNCc1ccc(-c2ccc3ncnc(Nc4ccc(OCc5cccc(F)c5)c(Cl)c4)c3c2)o1
OUTPUT: active

INPUT: Please do the same for CCCCn1c(C)nc2ccc(Nc3nc(N4CCN(C)CC4)nc4nc[nH]c34)cc21 as well.
OUTPUT: inactive

INPUT: Now this one: C=CC(=O)Nc1cc2c(Nc3ccc(F)c(Cl)c3)ncnc2cc1C#CC(C)(C)N1CCN(C)CC1
OUTPUT: active

INPUT: And for Cc1ccc(-[n+]2c3cc(N)c(C)cc3nc3cc(C)c(Nc4ccccc4)cc32)cc1 ?
OUTPUT: active

INPUT: Same for O=C(Nc1ccc(-c2ccnc(Nc3ccc(N4CCOCC4)cc3)n2)cc1)[C@@H]1CCCN1
OUTPUT: active

INPUT: Entry to check: COc1cc2c(Nc3ccc(Br)cc3F)ncnc2cc1OCC1CCN(C)CC1
OUTPUT: active

INPUT: Another molecule to check: COc1cnc2c(c1)C(=O)c1c-2n(CCCN2CCC(N)CC2)c(=O)c2cc([N+](=O)[O-])ccc12
OUTPUT: inactive

INPUT: Repeat with CNC(=O)c1cnc(C)nc1-c1cc(C(C)(C)C)c(O)c(C(C)(C)C)c1
OUTPUT: inactive

INPUT: Again, but for O=c1[nH]c([C@@H]2CCCN2)nc2c1oc1ccc(Cl)cc12
OUTPUT: inactive

INPUT: Now the molecule C=CCN1C(=O)c2cccc3c(-c4ccc5c(c4)ncn5C4CCCCC4)ccc(c23)C1=O
OUTPUT: inactive

INPUT: How about COc1cc(Nc2ncc(F)c(Nc3ccc4c(n3)NC(=O)C(C)(C)O4)n2)cc(OC)c1OC ?
OUTPUT: active

INPUT: And CNC(=O)CN1CCC(Oc2cc3c(Nc4cccc(Cl)c4F)ncnc3cc2OC)CC1 ?
OUTPUT: inactive

====

System: SF-295 CNS
procedure_details: NCI-60 one-dose screen, 48 h
reported_conditions: 10 µM unless noted
The panel holds about 83,000 compounds, 20% with a hit somewhere; the sample as a whole holds those more often. Active and inactive are the calls of the source. The calls were made as follows: active = growth percent below 10; inactive = the rest.
Field 'call' accepts active, inactive

INPUT: Please indicate how the test categorized C/C(=C(/c1ccc(Cl)cc1)c1ccc(OCCN2CCCCCC2)cc1)c1ccccc1 .
OUTPUT: inactive

INPUT: Now the compound CCn1c(-c2nonc2N)nc2c(C#CC(C)(C)O)ncc(OC[C@H]3CCCNC3)c21
OUTPUT: inactive

INPUT: And what about the compound NC1(c2ccc(-c3nc4ccn5c(=O)[nH]nc5c4cc3-c3ccccc3)cc2)CCC1 ?
OUTPUT: active

INPUT: How about c1cn2cc(-c3ccc4cn[nH]c4c3)nc(Nc3ccc(N4CCOCC4)cc3)c2n1 ?
OUTPUT: inactive

INPUT: Repeat for the following compound: Cc1cc(Nc2ncc(Cl)c(Nc3ccccc3S(=O)(=O)C(C)C)n2)c(OC(C)C)cc1C1CCNCC1
OUTPUT: active

INPUT: Query COc1ccc(F)c(F)c1C(=O)c1cnc(NC2CCN(S(C)(=O)=O)CC2)nc1N next
OUTPUT: active

INPUT: Also check CN(C)C/C=C/C(=O)Nc1cc2c(Nc3ccc(F)c(Cl)c3)ncnc2cc1O[C@H]1CCOC1
OUTPUT: inactive

INPUT: Proceed to CCCc1cc2cc(-n3nc(C)c4c3CC(C)(C)CC4=O)cc(NC3CCC(O)CC3)c2c(=O)[nH]1 (centres undefined)
OUTPUT: active

INPUT: Moving on to the next compound: N#Cc1ccc(-n2nnc3ccccc32)cc1C#N
OUTPUT: inactive

INPUT: Likewise for Cn1c(Nc2ccc(C(F)(F)F)cc2)nc2cc(Oc3ccnc(-c4ncc(C(F)(F)F)[nH]4)c3)ccc21 ?
OUTPUT: inactive

INPUT: What about this compound? Cc1cc(N(CCNc2ccnc3cc(Cl)ccc23)Cc2ccc3c(c2)OCO3)nc(N2CCN(C)CC2)n1
OUTPUT: active

INPUT: Can you check CC(=O)O[C@]1(C)C[C@H](O)[C@]2(O)C=CO[C@H](O[C@@H]3O[C@H](CO)[C@@H](O)[C@H](O)[C@H]3O)[C@@H]21 next?
OUTPUT: inactive

INPUT: Please do the same for Cc1ccc(N=C2CSc3nnc(-c4csc5c4CCCC5)n3N2)cc1 as well.
OUTPUT: active

INPUT: Please do the same for COC(=O)Nc1nc2ccc(C(=O)c3ccc(N(C)C4COC4)cc3)cc2[nH]1 as well.
OUTPUT: inactive

INPUT: Now give it for C=CCCCOC1[C@H](OCc2ccccc2)C(OCc2ccccc2)C(OC)O[C@@H]1CNC(=O)c1cccc(I)c1 (some centres undefined) too.
OUTPUT: inactive

INPUT: Please answer likewise for CCc1nc2ccc(Cc3ccc(C(=O)NO)cc3)cc2c(=O)n1CCc1ccccc1
OUTPUT: active

INPUT: Similarly, CCNCCNc1cc(-c2ccc(Cl)c(Cl)c2)c(C#N)c2nc3ccccc3n12 ?
OUTPUT: active

INPUT: Continue with CNC(=O)c1cc(Oc2cccc3nc(Nc4ccc(Oc5ccccc5)cc4)ccc23)ccn1
OUTPUT: inactive

INPUT: Entry to check: C[C@@H](Oc1cc(-n2cnc3ccc(CN4CCN(C)CC4)cc32)sc1C(N)=O)c1ccccc1C(F)(F)F
OUTPUT: inactive
